These entries and their values trace back to ChEMBL document CHEMBL3763084.

target: Serine/threonine-protein kinase pim-1 (Homo sapiens)
Sequence (P11309 whole entry): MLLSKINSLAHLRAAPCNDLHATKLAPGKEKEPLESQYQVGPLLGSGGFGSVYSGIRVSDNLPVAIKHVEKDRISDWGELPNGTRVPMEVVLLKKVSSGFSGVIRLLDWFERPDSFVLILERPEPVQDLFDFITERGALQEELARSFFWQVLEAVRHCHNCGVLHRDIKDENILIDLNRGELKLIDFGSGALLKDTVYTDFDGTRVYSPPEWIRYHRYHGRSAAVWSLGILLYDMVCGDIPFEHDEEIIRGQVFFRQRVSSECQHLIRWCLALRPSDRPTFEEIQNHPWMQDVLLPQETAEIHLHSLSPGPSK
readout.name: IC50 (nM)

FC(F)(F)Oc1cccc(Nc2nnnc3ccc(N4CCC(N5CCCCC5)CC4)nc23)c1
2470

P. CN1CCN(c2ccc3nnnc(Nc4cccc(OC(F)(F)F)c4)c3n2)CC1
Q. COc1ccc2nnnc(Nc3cccc(OC(F)(F)F)c3)c2n1
R. FC(F)(F)Oc1cccc(Nc2nnnc3ccc(N4CCC(N5CCCC5)CC4)nc23)c1
QUERY: Order the entries by their reported IC50, beginning at the minimum. The response must list the labels following the requested ordering.
RESULT: P, R, Q
(P: 600 nM, R: 1050 nM, Q: 2020 nM)
